Tested on: Sprague Dawley rats (Schenk Model)
Experiment: Schenk Model: bone mineral density of proximal tibial metaphysis by DXA
Type: in vivo, rat
Details: SQ once daily for 7 days, rats; logistic dose response relationship
Some compounds, each annotated with its measured D20, 20% > BMD than control.
Hi! Could you send only the number? It should be in mcg P/kg, unit omitted.

Example entries and their recorded answers appear below.
COMPOUND: O=P(O)(O)C(O)(Cn1ccnc1)P(=O)(O)O [Zoledronic acid, reference compound]
D20, 20% > BMD than control [mcg P/kg]: 0.1
--
COMPOUND: O=P(O)(O)C(O)(Cc1cccnc1)P(=O)(O)O [Risedronate, risedronate, reference compound]
D20, 20% > BMD than control [mcg P/kg]: 1.8
--
COMPOUND: CC(C)OC(=O)Oc1ccccc1C1OP(=O)(O)C(O)(Cc2cccnc2)P(=O)(O)O1 (stereo not drawn) [Example 62 (trans)]
D20, 20% > BMD than control [mcg P/kg]: 5

Please look up its D20, 20% > BMD than control: CC(C)OC(=O)Oc1ccccc1C1OP(=O)(O)C(O)(Cn2ccnc2)P(=O)(O)O1 (stereo not shown)
0.5
